pIC50: −log10 of the molar value.
So I've got pIC50 readings for CYP3A4(BQ) (Homo sapiens), take a look.

molecule: O=C(c1ccc(NC2CCC(F)(F)CC2)nc1F)c1c[nH]c2ncnc(NC3CC3)c12 [Compound P-4062]
pIC50: < 5.00

molecule: Cc1cnc2[nH]cc(Cc3ccc(Nc4ccc(C5CC5)nc4)nc3F)c2c1 [Compound P-3050]
pIC50: < 5.00

Input line: May I ask what pIC50 has been recorded for CCc1ccc(Nc2ccc(C(=O)c3c[nH]c4ncc(C)cc34)c(F)n2)cn1 [Compound P-3049] ?
Output line: < 5.00

====

So I've got pIC50 readings for c-Kit kinase (Homo sapiens), take a look.
pIC50: −log10 of the molar value.

input_smiles: FC1(F)CCC(Nc2ncc(Cc3c[nH]c4ncc(Cl)cc34)cn2)CC1
assay_target: c-Kit kinase (Homo sapiens)
Sequence (P10721 26-976): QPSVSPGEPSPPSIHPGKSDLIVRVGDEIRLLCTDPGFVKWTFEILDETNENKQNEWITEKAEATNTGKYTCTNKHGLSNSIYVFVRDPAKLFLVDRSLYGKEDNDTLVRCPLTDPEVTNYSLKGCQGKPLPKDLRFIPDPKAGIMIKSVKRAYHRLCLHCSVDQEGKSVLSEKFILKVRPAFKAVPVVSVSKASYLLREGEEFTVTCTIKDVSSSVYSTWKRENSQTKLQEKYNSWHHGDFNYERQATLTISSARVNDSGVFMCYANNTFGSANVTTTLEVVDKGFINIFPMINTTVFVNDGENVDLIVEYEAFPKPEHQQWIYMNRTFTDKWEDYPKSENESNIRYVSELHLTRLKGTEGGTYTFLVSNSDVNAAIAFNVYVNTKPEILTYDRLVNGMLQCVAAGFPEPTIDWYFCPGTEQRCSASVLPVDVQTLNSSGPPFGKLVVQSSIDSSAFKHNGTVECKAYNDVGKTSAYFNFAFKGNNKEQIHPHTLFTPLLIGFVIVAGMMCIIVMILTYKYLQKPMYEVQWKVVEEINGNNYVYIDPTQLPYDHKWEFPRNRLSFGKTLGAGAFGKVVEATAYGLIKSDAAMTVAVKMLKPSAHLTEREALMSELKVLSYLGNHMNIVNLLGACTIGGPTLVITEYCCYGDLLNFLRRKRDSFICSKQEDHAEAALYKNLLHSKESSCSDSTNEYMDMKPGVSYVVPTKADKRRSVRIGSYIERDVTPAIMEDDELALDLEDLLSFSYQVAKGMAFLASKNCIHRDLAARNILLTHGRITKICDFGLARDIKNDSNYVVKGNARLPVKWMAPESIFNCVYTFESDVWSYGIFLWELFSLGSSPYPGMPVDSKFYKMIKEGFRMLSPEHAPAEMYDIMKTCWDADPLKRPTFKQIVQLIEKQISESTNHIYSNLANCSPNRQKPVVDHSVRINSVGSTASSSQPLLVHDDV
pIC50: > 6.00

Input line: API: value(readout=pIC50, system=c-Kit kinase (Homo sapiens)) for record "CCc1ccc(Nc2ccc(C(=O)c3c[nH]c4ncnc(C5CC5)c34)c(F)n2)cn1"
Output line: > 7.00

Input line: API: value(readout=pIC50, system=c-Kit kinase (Homo sapiens)) for record "CCNc1ncnc2[nH]cc(C(=O)c3cnc(NC4CCC(F)(F)CC4)c(F)c3)c12"
Output line: > 6.00

Input line: API: value(readout=pIC50, system=c-Kit kinase (Homo sapiens)) for record "CNc1ncnc2[nH]cc(C(=O)c3cnc(NC4CCC(F)(F)CC4)c(F)c3)c12"
Output line: < 6.00

Input line: API: value(readout=pIC50, system=c-Kit kinase (Homo sapiens)) for record "O=C(c1ccc(Nc2ccc(C3CC3)nc2)nc1F)c1c[nH]c2ncccc12"
Output line: > 7.00

Input line: API: value(readout=pIC50, system=c-Kit kinase (Homo sapiens)) for record "COc1ncnc2[nH]cc(Cc3ccc(Nc4ccc(C)nc4)nc3F)c12"
Output line: > 6.00
